Assay: physchem
OBSERVED PROPERTY: chromatographic logP

Examples with their reported chromatographic logP follow.
CCSc1cc(C#CCON=Cc2ccc(F)cc2OC)ccc1C ... 5.38
CCSc1cc(C#CCON=Cc2ccccc2OC)ccc1C ... 5.33
CC(C)Oc1ccc(C=NOCC#Cc2cccc(CC#N)c2)cn1 ... 3.69
COc1cc(F)ccc1C=NOCC#Cc1ccccc1SC ... 4.29
COc1ccccc1C=NOCC#Cc1ccccc1SC ... 4.23

P. COc1ccc(C=NOCC#Cc2cc(C)c(F)c(SC)c2)cn1
Q. COc1ccc(C=NOCC#Cc2ccc(F)c([S+](C)[O-])c2F)cn1 (stereo not shown)
Sorting by chromatographic logP in descending order, would P or Q appear first? API: response body contains the label of the selected item. P
(P: 4.54, Q: 2.17)

1. CCC(=NOCC#Cc1cccc(SC)c1)c1ccccc1F
2. CC(=NOCC#Cc1cccc([S+](C)[O-])c1)c1cccc(C)n1 (stereo not shown)
Sorting by chromatographic logP in descending order, would 1 or 2 appear first? API: response body contains the label of the selected item. 1
(1: 4.84, 2: 1.75)

A. COc1ncc(Cl)nc1C=NOCC#Cc1cccc(SC)c1
B. CC[S+]([O-])c1cc(C#CCON=Cc2ccc(OC)nc2)ccc1C (stereo not shown)
Sorting by chromatographic logP in descending order, would A or B appear first? API: response body contains the label of the selected item. A

a. COc1ccc(C=NOCC#Cc2ccc(F)c(F)c2)cn1
b. CCOc1ccc(C=NOCC#Cc2cccc([S+](C)[O-])c2)cn1 (stereo not shown)
Sorting by chromatographic logP in descending order, would a or b appear first? API: response body contains the label of the selected item. a
(a: 3.83, b: 2.42)

1. COc1ccc(C=NOCC#Cc2cccc(CC#N)c2)c(OC)c1
2. CCC(=NOCC#Cc1cccc(C(F)(F)F)c1)c1ccc(F)cc1
# compare chromatographic logP for 1 vs 2 ; return the one with the smaller value API: response body contains the label of the selected item. 1

A. CCSc1cccc(C#CCON=Cc2ccc(F)cc2OC)c1
B. COc1cccc(OC)c1C=NOCC#Cc1cccc(CC#N)c1
Sorting by chromatographic logP in descending order, would A or B appear first? API: response body contains the label of the selected item. A
(A: 4.9, B: 2.86)

----------
Assay: physchem
OBSERVED PROPERTY: chromatographic logP

Examples with their reported chromatographic logP follow.
C[S+]([O-])c1cccc(C#CCON=Cc2ccc(C3CCCC3)nc2)c1 (stereo not shown) ... 3.43
CC(C)Oc1ccc(C=NOCC#Cc2cccc([S+](C)[O-])c2)cn1 (stereo not shown) ... 2.77

I. COc1ccccc1C=NOCC#Cc1ccccc1[S+](C)[O-] (stereo not shown)
II. CCC(=NOCC#Cc1cccc(OC)c1)c1ccccc1
Sorting by chromatographic logP in descending order, would I or II appear first? API: response body contains the label of the selected item. II
(II: 4.45, I: 2.73)

I. CC(=NOCC#Cc1cccc(S(C)(=O)=O)c1)c1cccc(C)n1
II. COc1ccc(C=NOCC#Cc2cccc(OC(F)(F)F)c2)cn1
# compare chromatographic logP for I vs II ; return the one with the smaller value API: response body contains the label of the selected item. I

a. COc1ccccc1C=NOCC#Cc1cc(C)c(F)c([S+](C)[O-])c1 (stereo not shown)
b. COc1cccc(OC)c1C=NOCC#Cc1cccc([S+](C)[O-])c1 (stereo not shown)
c. CCC(=NOCC#Cc1cccc(SC)c1)c1ccc(C)cc1
Please give the order of these molecules when sorted by chromatographic logP, largest value leading. When ranking, write the labels in the order the request describes. c, a, b

A. COc1cc(F)ccc1C=NOCC#Cc1ccc(F)c(SC)c1F
B. COc1nc(Cl)cnc1C=NOCC#Cc1cccc([S+](C)[O-])c1 (stereo not shown)
Sorting by chromatographic logP in descending order, would A or B appear first? API: response body contains the label of the selected item. A

----------
Assay: physchem
OBSERVED PROPERTY: chromatographic logP

CCSc1cccc(C#CCON=Cc2ccc(OC)nc2)c1 [Beispiel 5.127] ... 4.34
CCC(=NOCC#Cc1cccc(CC#N)c1)c1ccc(F)cc1 [Beispiel 1.414] ... 3.88
COc1nc(Cl)cnc1C=NOCC#Cc1cccc(SC)c1 [Beispiel 4.100] ... 4.03
CCC(=NOCC#Cc1cccc(CC#N)c1)c1cccc(C)n1 [Beispiel 3.098] ... 3.5
COc1ccccc1C=NOCC#Cc1cccc(OC(F)(F)F)c1 [Beispiel 1.428] ... 4.72

----------
Test: physchem
OBSERVED PROPERTY: chromatographic logP

CCC(=NOCC#Cc1cccc(C(F)(F)F)c1)c1ccc(C)cc1 ... 5.53
COc1ncc(C=NOCC#Cc2cc(SC)c(F)c(SC)c2)cc1F ... 4.65

1. CSc1cccc(C#CCON=C(C)c2cccc(C)n2)c1
2. CCOc1ncccc1C=NOCC#Cc1ccc(C)c([S+](C)[O-])c1 (centres unmarked)
Sorting by chromatographic logP in descending order, would 1 or 2 appear first? API: response body contains the label of the selected item. 1
(1: 4.18, 2: 2.83)

----------
Test: physchem
OBSERVED PROPERTY: chromatographic logP

COc1cc(F)ccc1C=NOCC#Cc1cc(SC)c(F)c(SC)c1 [Beispiel 1.449] ... 5.17
CCSc1cc(C#CCON=Cc2ccccc2OC)ccc1OC [Beispiel 1.398] ... 4.45
CSc1cccc(C#CCON=Cc2ccc(SC)nc2)c1 [Beispiel 5.186] ... 4.22
COc1ccccc1C=NOCC#Cc1cc(SC)c(F)c(SC)c1 [Beispiel 1.450] ... 5.05
